Recorded Beta2 duration values (Beta-2 adrenergic receptor (Cavia porcellus) (UniProt Q8K4Z4)) are given below.

# COMPOUND, Beta2 duration
data = [
    ("CC(CCCCCOCCc1ccccc1)NCCc1ccc(O)c2nc(O)sc12 (stereo unspecified)", "> 180 min"),
    ("N#Cc1ccc(CCOCCCS(=O)(=O)CCNCCc2ccc(O)c3nc(O)sc23)cc1", "40 min"),
    ("Cc1ncsc1CCOCCCS(=O)(=O)CCNCCc1ccc(O)c2nc(O)sc12", "40 min"),
    ("CC(C)(CCCCOCCc1ccc([N+](=O)[O-])cc1)CNCCc1ccc(O)c2nc(O)sc12", "> 180 min"),
    ("O=S(=O)(CCCOCCNc1ccccc1)CCNCCc1ccc(O)c2nc(O)sc12", "40 min"),
    ("O=S(=O)(Nc1ccc(CCOCCCSCCNCCc2ccc(O)c3nc(O)sc23)cc1)c1ccccc1", "> 180 min"),
    ("O=S(=O)(CCCNCCc1ccc(O)c2nc(O)sc12)CCOCCc1ccccc1", "140 min"),
    ("CCCN(CCCOCCOCCc1ccccc1)CCc1ccc(O)c2nc(O)sc12", "> 180 min"),
    ("CC(C)(CCCCOCCc1cccc(N)c1)CNCCc1ccc(O)c2nc(O)sc12", "> 180 min"),
    ("O=S(=O)(CCCOCCc1ccccc1)NCCNCCc1ccc(O)c2nc(O)sc12", "180 min"),
    ("Oc1nc2c(O)ccc(CCNCCSCCCOCCc3ccccn3)c2s1", "> 180 min"),
    ("O=S(=O)(CCCNCCc1ccc(O)c2nc(O)sc12)CCOCCCc1ccccc1", "> 180 min"),
    ("Oc1nc2c(O)ccc(CCNCCCCCCOCCc3ccccn3)c2s1", "109 min"),
    ("O=S(=O)(CCCOCCc1nccc2ccccc12)CCNCCc1ccc(O)c2nc(O)sc12", "50 min"),
    ("CC(C)(CCCCOCCc1ccc(O)cc1)CNCCc1ccc(O)c2nc(O)sc12", "> 180 min"),
    ("O=S(=O)(CCOCc1cccc2ccccc12)NCCCNCCc1ccc(O)c2nc(O)sc12", "180 min"),
    ("O=S(=O)(CCOCCCc1ccccc1)NCCNCCc1ccc(O)c2nc(O)sc12", "> 180 min"),
    ("Oc1nc2c(O)ccc(CCNCCCSCCOCCc3cccc4ccccc34)c2s1", "> 180 min"),
    ("Oc1nc2c(O)ccc(CCNCCCCCCOCCc3nccs3)c2s1", "> 180 min"),
    ("CC(C)(CNCCc1ccc(O)c2nc(O)sc12)CSCCOCCc1ccccc1N", "> 180 min"),
    ("Oc1nc2c(O)ccc(CCNCCCSCCOCCOc3ccccc3)c2s1", "> 180 min"),
]

###

target: Beta-2 adrenergic receptor (Cavia porcellus)
Flag rule - Beta2 duration less than 100 min flags Met; the remaining entries get Not met.

# INPUT_SMILES, EXPERIMENTAL_SYSTEM, QUALITATIVE_LABEL
data = [
    ("O=C(NCCCCCCNCCc1ccc(O)c2nc(O)sc12)Nc1ccccc1", "Beta-2 adrenergic receptor (Cavia porcellus)", "Met"),
    ("Cc1ccccc1CCOCCCS(=O)(=O)CCNCCc1ccc(O)c2nc(O)sc12", "Beta-2 adrenergic receptor (Cavia porcellus)", "Not met"),
    ("NC(=O)Nc1ccc(CCOCCCCCCNCCc2ccc(O)c3nc(O)sc23)cc1", "Beta-2 adrenergic receptor (Cavia porcellus)", "Not met"),
    ("Cc1ccc(CCOCCNS(=O)(=O)CCCNCCc2ccc(O)c3nc(O)sc23)cc1", "Beta-2 adrenergic receptor (Cavia porcellus)", "Not met"),
    ("C[C@@H](COCCCS(=O)(=O)CCNCCc1ccc(O)c2nc(O)sc12)c1ccccc1", "Beta-2 adrenergic receptor (Cavia porcellus)", "Met"),
    ("CC(C)(CCCCOCCc1ccccc1N)CNCCc1ccc(O)c2nc(O)sc12", "Beta-2 adrenergic receptor (Cavia porcellus)", "Not met"),
    ("O=S(=O)(CCCOCCc1cc2ccccc2o1)CCNCCc1ccc(O)c2nc(O)sc12", "Beta-2 adrenergic receptor (Cavia porcellus)", "Not met"),
    ("O=S(=O)(CCCNCCc1ccc(O)c2nc(O)sc12)NCCOCCc1ccc(F)cc1", "Beta-2 adrenergic receptor (Cavia porcellus)", "Not met"),
    ("COc1ccc(CCOCCCS(=O)(=O)CCNCCc2ccc(O)c3nc(O)sc23)cc1", "Beta-2 adrenergic receptor (Cavia porcellus)", "Met"),
    ("Oc1nc2c(O)ccc(CCNCCNCCCOCCc3ccccc3)c2s1", "Beta-2 adrenergic receptor (Cavia porcellus)", "Met"),
]
